Data origin: patent US20160221948A1

biological target: human SSTR4 (Homo sapiens); experiment: Evaluation of agonist activities using human SSTR4-stably expressing cells (aequorin luminescence); details: luminescence signal; 1 μmol/L somatostatin taken as 100%
So basically: is EC50 under 10 nM? Then met. Not under? Then not met.

Determine if C[C@@H]1[C@H](C(=O)NC(C)(C)c2cccc3ccccc23)CCCN1C (relative stereo) shows EC50 strictly lower than 10 nM.
not met

Is EC50 of Cc1ccc(C)c(C(C)(C)NC(=O)[C@H]2CCCN(C)C2)c1 strictly below 10 nM?
not met

Does the reported EC50 of the following molecule sit strictly below 10 nM? COc1ccccc1C(C)(C)NC(=O)[C@@H]1CN(C)CC[C@@H]1c1ccccc1 (relative stereo)
not met

EC50 strictly < 10 nM for this molecule? CCN1CCCC(C(=O)NC(C)(C)c2cccc3ccccc23)C1 (stereo not drawn) [Example 111]
met

# strict comparison: is reported EC50 < 10 nM? input = CCCN1CCC[C@H](C(=O)NC(C)(C)c2cccc3ccccc23)C1
met

Is the reported EC50 for CN1CCCC(C(=O)NC2(c3cccc4ccccc34)CC(F)(F)C2)C1 (stereo not drawn) strictly below 10 nM?
not met

Strictly below 10 nM in EC50? Cc1cc(Cl)cc(C(C)(C)NC(=O)C2CCCN(C)C2)c1 (stereo not drawn)
met

Determine if CN1CCC[C@H](C(=O)NC(C)(C)c2cc(Cl)ccc2Cl)C1 shows EC50 strictly lower than 10 nM.
met

Does CN1CCC[C@H](C(=O)NC(C)(C)c2ccccn2)C1 have EC50 strictly under 10 nM?
not met

---

MEASURED ENDPOINT: Ki (nM)
Your answer should be a plain number; it is taken to be in nM.

Given CN1CCC[C@H](C(=O)NC(C)(C)c2cc(Cl)ccc2Cl)C1 , report its Ki on SSTR1 (Homo sapiens).
Sequence (P30872 whole entry, species assumed): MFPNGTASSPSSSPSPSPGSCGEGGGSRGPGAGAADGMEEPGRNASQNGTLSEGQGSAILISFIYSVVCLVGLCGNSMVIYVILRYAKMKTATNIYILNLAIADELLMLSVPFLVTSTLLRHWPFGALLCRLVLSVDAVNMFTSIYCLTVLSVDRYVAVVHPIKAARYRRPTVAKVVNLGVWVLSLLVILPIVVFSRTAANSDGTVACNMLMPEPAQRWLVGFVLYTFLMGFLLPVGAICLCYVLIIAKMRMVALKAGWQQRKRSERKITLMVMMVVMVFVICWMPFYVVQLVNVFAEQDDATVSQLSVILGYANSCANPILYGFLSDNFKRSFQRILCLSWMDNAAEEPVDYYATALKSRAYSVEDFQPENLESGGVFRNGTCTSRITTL
1570

---

molecular target: SSTR2 (Homo sapiens, UniProt P30874)
Sequence (P30874 whole entry, species assumed): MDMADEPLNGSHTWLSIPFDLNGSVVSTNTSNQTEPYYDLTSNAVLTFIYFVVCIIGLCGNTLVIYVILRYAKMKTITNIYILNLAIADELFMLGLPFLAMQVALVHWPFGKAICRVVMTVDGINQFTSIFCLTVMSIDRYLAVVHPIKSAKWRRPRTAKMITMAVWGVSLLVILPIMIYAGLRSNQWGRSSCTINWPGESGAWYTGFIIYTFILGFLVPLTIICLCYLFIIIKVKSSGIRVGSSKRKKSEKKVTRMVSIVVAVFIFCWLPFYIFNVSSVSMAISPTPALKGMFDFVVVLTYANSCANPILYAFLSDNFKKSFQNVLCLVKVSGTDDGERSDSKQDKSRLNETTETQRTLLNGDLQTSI
MEASURED ENDPOINT: Ki

Give a short answer stating reported Ki for CN1CCC[C@H](C(=O)NC(C)(C)c2cc(Cl)ccc2Cl)C1 .
> 5 µM

---

target: human SSTR4 (Homo sapiens, UniProt P31391); experiment: Evaluation of agonist activities using human SSTR4-stably expressing cells (aequorin luminescence); conditions: luminescence signal; 1 μmol/L somatostatin taken as 100%
Sequence (P31391 whole entry): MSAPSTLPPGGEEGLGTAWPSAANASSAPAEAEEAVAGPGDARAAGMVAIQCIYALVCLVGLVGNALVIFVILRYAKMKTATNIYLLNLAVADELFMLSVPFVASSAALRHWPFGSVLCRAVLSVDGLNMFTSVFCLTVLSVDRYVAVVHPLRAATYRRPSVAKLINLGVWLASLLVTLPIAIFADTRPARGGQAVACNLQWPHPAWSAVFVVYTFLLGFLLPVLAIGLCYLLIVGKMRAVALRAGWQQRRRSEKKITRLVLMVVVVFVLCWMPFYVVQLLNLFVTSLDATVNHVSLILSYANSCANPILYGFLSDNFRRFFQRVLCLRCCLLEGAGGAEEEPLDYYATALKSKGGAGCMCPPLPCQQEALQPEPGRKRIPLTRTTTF
MEASURED ENDPOINT: EC50 (nM)
Please give a number only; it is taken to be in nM.

Annotate the molecule Cc1ccc(C(C)(C)NC(=O)[C@H]2CCCN(C)C2)c(Cl)c1 [Example 37] with its measured EC50.
2.5

Determine from records and report EC50 for COc1ccc(F)cc1C(C)(C)NC(=O)[C@H]1CCCN(C)C1 [Example 54]
8.2

Provide measured EC50 value, entry: CN1CCCC(C(=O)NC2(c3cc(Cl)cc(Cl)c3)CCOCC2)C1 (stereo not drawn) [Example 9]
43.3

Answer with the recorded EC50 of CN1CCCC(C(=O)NC(C)(C)c2cc(Cl)ccc2Cl)C1 (stereo not drawn) [Example 15] only.
3.5

Respond only with EC50 recorded for CCCCN1CCCC(C(=O)NC(C)(C)c2cccc3ccccc23)C1 (stereo not drawn) [Example 118]
55.2

Identify the reported EC50 for the following entry. C[C@@H]1CC[C@H](C(=O)NC(C)(C)c2cccc(Cl)c2Cl)CN1C (relative stereo) [Example 96]
11.7

Specify EC50 for CN1CCCC(C(=O)NC(C)(C)c2ccc(Cl)c(Cl)c2)C1 (stereo not drawn) [Example 10] and stop.
24.2

Please look at this molecule and report its EC50: CC(C)(NC(=O)[C@H]1CCCN(CCF)C1)c1cccc2ccccc12 [Example 113]
3.1

# return recorded EC50 for entry CCc1ccccc1C(C)(C)NC(=O)[C@H]1CCCN(C)C1 [Example 76]
1.9

Fill in reported EC50 for this entry: COC[C@@H]1CC[C@@H](C(=O)NC(C)(C)c2cccc3ccccc23)CN1C (relative stereo) [Example 104]
81.4

Tell me measured EC50 for CCC(C)N1CCCC(C(=O)NC(C)(C)c2cccc3ccccc23)C1 (stereo not drawn) [Example 120] please.
22.7

Identify the reported EC50 for the following entry. [2H]C([2H])([2H])N1CCC[C@H](C(=O)NC(C)(C)c2ccccc2Cl)C1 [Example 122]
3.6

Could you please provide reported EC50 for COc1cc(Cl)c(Cl)cc1C(C)(C)NC(=O)[C@H]1CCCN(C)C1 [Example 52] ? Thanks!
1.2

Fill in reported EC50 for this entry: COc1ccccc1C(C)(C)NC(=O)[C@@H]1CN(C)CC[C@H]1c1ccccc1 (relative stereo) [Example 108]
2.2

Look up and report measured EC50 for this entry: C[C@@H]1CC[C@H](C(=O)NC(C)(C)c2cccc3ccccc23)CN1C (relative stereo) [Example 81]
3.4

---

biological target: human SSTR4 (Homo sapiens, UniProt P31391); experiment: Evaluation of agonist activities using human SSTR4-stably expressing cells (aequorin luminescence); details: luminescence signal; 1 μmol/L somatostatin taken as 100%
Mark 1.0 for EC50 under 6 nM, 0.0 if at or over.

I'd appreciate it if you could check whether Cc1ccc(C(C)(C)NC(=O)[C@H]2CCCN(C)C2)cc1 has EC50 smaller than 6 nM.
0.0

Is EC50 of CN1CCC[C@H](C(=O)NC(C)(C)c2ccc(Cl)cc2-c2ccccc2)C1 strictly below 6 nM?
0.0

Identify whether the compound CN1CC[C@H](C(=O)NC(C)(C)c2ccccc2Cl)C1 records EC50 below 6 nM.
0.0

Please let me know if CCN1CCCC(C(=O)NC(C)(C)c2cccc3ccccc23)C1 (centres unmarked) [Example 116] shows EC50 below 6 nM.
1.0

Please indicate whether the reported EC50 of CN1CCC[C@H](C(=O)NC(C)(C)c2cccc(Cl)c2Cl)C1 is strictly below 6 nM.
1.0

Just wondering, is EC50 of Cc1cccc(C(C)(C)NC(=O)[C@@H]2CC[C@H](C)N(C)C2)c1Cl (relative stereo) below 6 nM?
0.0

In the record for CC(C)c1cc(Cl)ccc1C(C)(C)NC(=O)[C@H]1CCCN(C)C1 , is EC50 less than 6 nM?
0.0

Would you kindly verify if EC50 of CN1CCC[C@H](C(=O)NC(C)(C)c2cccc(Cl)c2F)C1 is strictly less than 6 nM?
0.0

Is 6 nM strictly greater than the compound's reported EC50? compound: Cc1cccc(C(C)(C)NC(=O)[C@H]2CCCN(C)C2)c1Cl
1.0

API: query returns whether the compound falls strictly under 6 nM in EC50. Query: CC[C@@H]1CC[C@@H](C(=O)NC(C)(C)c2cccc(Cl)c2Cl)CN1C (relative stereo)
0.0

is_below(EC50, 6 nM) for Cc1cccc(C2(NC(=O)C3CCCN(C)C3)CC2)c1C (centres unmarked) ?
0.0

Consider CN1CCC[C@H](C(=O)NC(C)(C)c2cccc(F)c2Cl)C1 . Does its EC50 lie strictly below 6 nM?
1.0

For this compound, is EC50 lower than 6 nM? Cc1ccc(Cl)cc1C(C)(C)NC(=O)[C@H]1CCCN(C)C1
1.0

Is EC50 strictly under 6 nM for the entry Cc1cc(Cl)ccc1C(C)(C)NC(=O)[C@H]1CCCN(C)C1 ?
0.0

Please let me know if CN1CC(C(=O)NC(C)(C)c2cccc(Cl)c2Cl)CC(F)(F)C1 (centres unmarked) shows EC50 below 6 nM.
0.0

Determine whether this compound shows EC50 lower than 6 nM (ties excluded): CN1CCC[C@H](C(=O)NC(C)(C)c2ccsc2)C1
0.0

Please indicate whether the reported EC50 of CCCN1CCCC(C(=O)NC(C)(C)c2cccc3ccccc23)C1 (centres unmarked) is strictly below 6 nM.
0.0

Determine if CN1CCC[C@H](C(=O)NC(C)(C)c2ccccc2S(C)(=O)=O)C1 shows EC50 strictly lower than 6 nM.
0.0

Dear colleague, could you confirm whether EC50 of Cc1ccc(C(C)(C)NC(=O)[C@H]2CCCN(C)C2)c(C)c1 falls below 6 nM? Thanks.
1.0

Lab note: EC50 threshold 6 nM. Does this compound come in strictly under it? Cc1ccc(Cl)c(C(C)(C)NC(=O)[C@H]2CCCN(C)C2)c1
1.0

Just wondering, is EC50 of CC(C)(NC(=O)C1CCCN(CCF)C1)c1cccc2ccccc12 (centres unmarked) below 6 nM?
0.0

API: query returns whether the compound falls strictly under 6 nM in EC50. Query: CN1CCC[C@H](C(=O)NC(C)(C)c2ccccc2Br)C1
1.0

Input Cc1cccc(C(C)(C)NC(=O)[C@H]2CCCN(C)C2)c1 ; condition: EC50 strictly below 6 nM. Does it hold?
0.0

Would you kindly verify if EC50 of Cc1c(Cl)cccc1C(C)(C)NC(=O)C1CCCN(C)C1 (centres unmarked) is strictly less than 6 nM?
1.0

Consider the compound CN1CCC[C@H](C(=O)NC(C)(C)c2ccccc2Cl)C1 . Is its EC50 strictly less than 6 nM?
1.0

For CN1CCC[C@H](C(=O)NC(C)(C)c2ccc(Cl)c(Cl)c2)C1 , is the recorded EC50 below the cut-off of 6 nM?
0.0

# TODO verify EC50 < 6 nM strictly for this compound: CN1CC(F)CC(C(=O)NC(C)(C)c2cccc3ccccc23)C1 (centres unmarked)
1.0

Record CN1CCCC(C(=O)NC(C)(C)c2cc(Cl)cc(Cl)c2)C1 (centres unmarked) : is its EC50 strictly below 6 nM?
1.0

Determine if CN1CC(O)CC(C(=O)NC(C)(C)c2cccc3ccccc23)C1 (centres unmarked) shows EC50 strictly lower than 6 nM.
0.0

Consider COc1ccc(Cl)cc1C(C)(C)NC(=O)[C@H]1CCCN(C)C1 . Does its EC50 lie strictly below 6 nM?
1.0

Answer whether the compound CC[C@@H]1CC[C@@H](C(=O)NC(C)(C)c2cccc3ccccc23)CN1C (relative stereo) has EC50 strictly less than 6 nM
0.0

For CCc1ccc(C(C)(C)NC(=O)[C@H]2CCCN(C)C2)c(CC)c1 , is the recorded EC50 below the cut-off of 6 nM?
1.0

Criterion: EC50 strictly below 6 nM. Is it met by C[C@@H]1[C@@H](C(=O)NC(C)(C)c2cccc3ccccc23)CCCN1C (relative stereo) ?
1.0

I wonder whether CN1CCCC(C(=O)NC(C)(C)c2ccc(Cl)cc2Cl)C1 (centres unmarked) has EC50 below 6 nM. Can you tell?
1.0

Is the reported EC50 for CN1CCC[C@H](C(=O)NC(C)(C)c2ccc(Cl)cc2)C1 strictly below 6 nM?
0.0

is_below(EC50, 6 nM) for CN1CCC[C@H](C(=O)NC(C)(C)c2cccc(F)c2)C1 ?
0.0

Determine if COc1ccccc1C(C)(C)NC(=O)[C@H]1CCCN(C)C1 shows EC50 strictly lower than 6 nM.
0.0
